target or test system: Hypoxanthine-guanine phosphoribosyltransferase (Homo sapiens)
Sequence (P00492 whole entry): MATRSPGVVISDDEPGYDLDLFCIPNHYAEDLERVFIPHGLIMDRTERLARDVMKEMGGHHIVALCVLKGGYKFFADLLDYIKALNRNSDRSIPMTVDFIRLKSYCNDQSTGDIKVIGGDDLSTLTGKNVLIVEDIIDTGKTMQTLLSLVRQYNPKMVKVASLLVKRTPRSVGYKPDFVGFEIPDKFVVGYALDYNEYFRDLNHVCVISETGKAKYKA
test name: Inhibition of human HGPRT using fixed concentration of guanine and variable concentrations of PRib-PP as substrate by spectrophotometric analysis
So I've got a bunch of compounds here, and I need their Ki values.
One number for each entry, in µM.

Here is how some compounds turned out for Ki.
Query: Endpoint output: Ki of Nc1nc2c(ncn2[C@@H]2CNC[C@@H]2OCP(=O)(O)O)c(=O)[nH]1 . Value?
Reply: 29

Query: Can you share its Ki? I mean this compound: O=P(O)(O)CO[C@H]1CNC[C@H]1n1cnc2c(O)ncnc21
Reply: 327

Query: Given the compound Nc1nc2c(ncn2[C@@H]2CN(C(=O)CCP(=O)(O)O)C[C@@H]2OCCP(=O)(O)O)c(=O)[nH]1 , what is its reported Ki?
Reply: 0.03

Pending compound:
Query: Return reported Ki; argument: O=C(CCP(=O)(O)O)N1C[C@H](OCCP(=O)(O)O)[C@H](n2cnc3c(O)ncnc32)C1
Reply: 0.6

====

target or test system: Hypoxanthine-guanine phosphoribosyltransferase (Mycobacterium tuberculosis (strain ATCC 25618 / H37Rv))
Sequence (P9WHQ9 whole entry): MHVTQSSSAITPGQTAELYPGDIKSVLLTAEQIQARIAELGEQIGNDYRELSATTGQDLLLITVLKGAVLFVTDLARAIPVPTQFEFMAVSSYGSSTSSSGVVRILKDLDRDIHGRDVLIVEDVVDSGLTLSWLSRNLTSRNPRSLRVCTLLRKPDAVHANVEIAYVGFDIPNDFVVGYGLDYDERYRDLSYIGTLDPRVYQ
test name: Inhibition of Mycobacterium tuberculosis recombinant N-terminal 6His-tagged HGPRT expressed in Escherichia coli BL21 (DE3) using fixed concentration of guanine and variable concentrations of PRib-PP as substrate by spectrophotometric analysis
Would you kindly list pKi for each of these compounds?
One number for each entry, as −log10 of the molar value.

The following compounds have reported results that may help.
Query: // pKi lookup, key: Nc1nc2c(ncn2[C@@H]2CN(C(=O)CCP(=O)(O)O)C[C@H]2OC[C@H](O)P(=O)(O)O)c(=O)[nH]1
Reply: 6.89

Query: Which pKi is reported for this compound? Nc1nc2c(ncn2[C@@H]2CNC[C@@H]2OCP(=O)(O)O)c(=O)[nH]1
Reply: 5.10

Query: Item O=P(O)(O)CO[C@H]1CNC[C@H]1n1cnc2c(O)ncnc21 has what recorded pKi?
Reply: 4.06

Query: Quick check: pKi of Nc1nc2c(ncn2[C@@H]2CN(C(=O)CCP(=O)(O)O)C[C@H]2OC[C@@H](O)P(=O)(O)O)c(=O)[nH]1 ?
Reply: 7.22

For every item in the list below, what is its measured pKi?
1. O=C(CCP(=O)(O)O)N1C[C@H](OCCP(=O)(O)O)[C@H](n2cnc3c(O)ncnc32)C1
2. O=C(CCP(=O)(O)O)N1C[C@@H](n2cnc3c(O)ncnc32)[C@H](OC[C@@H](O)P(=O)(O)O)C1
3. O=C(CCP(=O)(O)O)N1C[C@@H](n2cnc3c(O)ncnc32)[C@H](OC[C@H](O)P(=O)(O)O)C1
4. Nc1nc2c(ncn2[C@@H]2CN(C(=O)CCP(=O)(O)O)C[C@@H]2OCCP(=O)(O)O)c(=O)[nH]1

Reply:
1. 6.38
2. 7.22
3. 6.70
4. 7.40

====

test name: Ratio of Ki for Mycobacterium tuberculosis recombinant N-terminal 6His-tagged HGPRT expressed in Escherichia coli BL21 (DE3) to Ki for human HGPRT
Please respond with reported Ratio Ki for every item in the list.
One number for each entry.

Some entries whose results are on file:
Query: Query (molecule): O=C(CCP(=O)(O)O)N1C[C@H](OCCP(=O)(O)O)[C@H](n2cnc3c(O)ncnc32)C1 ; field requested: Ratio Ki
Reply: 0.7

Query: What does the data say about its Ratio Ki? Entry: Nc1nc2c(ncn2[C@@H]2CN(C(=O)CCP(=O)(O)O)C[C@H]2OC[C@H](O)P(=O)(O)O)c(=O)[nH]1
Reply: 16

Query: Reported Ratio Ki for Nc1nc2c(ncn2[C@@H]2CN(C(=O)CCP(=O)(O)O)C[C@@H]2OCCP(=O)(O)O)c(=O)[nH]1 : what is it?
Reply: 1.3

Lab note: each molecule below needs its Ratio Ki filled in.
1. Nc1nc2c(ncn2[C@@H]2CNC[C@@H]2OCP(=O)(O)O)c(=O)[nH]1
2. O=P(O)(O)CO[C@H]1CNC[C@H]1n1cnc2c(O)ncnc21
3. Nc1nc2c(ncn2[C@@H]2CN(C(=O)CCP(=O)(O)O)C[C@H]2OC[C@@H](O)P(=O)(O)O)c(=O)[nH]1

Reply:
0.3
0.3
20
